Recorded values, source ChEMBL document CHEMBL1133805.

Here the recorded IC50 is given for each entry.
- systemName: Proteinase-activated receptor 1 (Homo sapiens)
- Sequence (P25116 whole entry): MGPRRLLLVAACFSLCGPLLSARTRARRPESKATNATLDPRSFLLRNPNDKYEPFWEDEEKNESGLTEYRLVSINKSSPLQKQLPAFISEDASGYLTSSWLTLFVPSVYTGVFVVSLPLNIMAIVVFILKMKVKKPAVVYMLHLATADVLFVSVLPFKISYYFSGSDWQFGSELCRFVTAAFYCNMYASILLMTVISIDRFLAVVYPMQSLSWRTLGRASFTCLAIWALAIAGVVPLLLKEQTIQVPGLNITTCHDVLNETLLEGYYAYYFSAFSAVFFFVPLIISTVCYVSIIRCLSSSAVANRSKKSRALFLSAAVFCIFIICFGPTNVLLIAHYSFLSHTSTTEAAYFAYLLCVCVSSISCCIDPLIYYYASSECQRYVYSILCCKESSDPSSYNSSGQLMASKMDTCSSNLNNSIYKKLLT
- assayExplanation: Binding affinity against platelet thrombin receptor
The response must be a number in nM with no trailing unit.

CN(C[C@@H](O)c1ccc(Cl)c(Cl)c1)C(=O)Nc1ccc(CNC(=O)C(C)(C)C)cc1    6600
CC(C)(C)C(=O)NCc1ccc(NC(=O)N(C[C@@H](O)c2ccc(Cl)c(Cl)c2)C2CC2)cc1    2100
CC(C)(C)C(=O)NCc1ccc(NC(=O)N2CCC[C@H]2[C@@H](O)c2ccc(Cl)c(Cl)c2)cc1    1100
CC(C)N(C[C@@H](O)c1ccc(Cl)c(Cl)c1)C(=O)Nc1ccc(CNC(=O)c2ccc(S(N)(=O)=O)cc2)cc1    1200
CC[C@@H](C)N(C[C@@H](O)c1ccc(Cl)c(Cl)c1)C(=O)Nc1ccc(CNC(=O)C(C)(C)C)cc1    120

Entry C[C@H]1CC[C@@H]([C@@H](O)c2ccc(Cl)c(Cl)c2)N1C(=O)Nc1ccc(CNC(=O)C(C)(C)C)cc1 , IC50 reported as 1000

Entry CC(C)N(C[C@@H](O)c1ccc(Cl)c(Cl)c1)C(=O)Nc1ccc(CNC(=O)C(C)(C)C)cc1 , IC50 reported as 700

* * *

- assayExplanation: Inhibitory activity against thrombin's catalytic activity was determined
- Format: functional
pKi: −log10 of the molar value.
quantityMeasured: pKi

Entry CC[C@@H](C)N(C[C@@H](O)c1ccc(Cl)c(Cl)c1)C(=O)Nc1ccc(CNC(=O)C(C)(C)C)cc1 , pKi reported as < 5.00
